# assay-target: Casein kinase I isoform gamma-2 (Homo sapiens)
Use 0.7 °C as the dividing line for ΔTm, with the line itself on the condition met side and lower values as condition not met.

**Query** For this compound, is measured ΔTm 0.7 °C or higher? `NCCNS(=O)(=O)c1cccc2c(Cl)cccc12`
**Result** condition not met

**Query** For this compound, is measured ΔTm 0.7 °C or higher? `COc1cc2ncnc(Nc3ccc(F)c(Cl)c3)c2cc1OCCCN1CCOCC1`
**Result** condition not met

**Query** For this compound, is measured ΔTm 0.7 °C or higher? `CC(C)N(CCO)c1nc(Nc2cccc(Cl)c2)c2ncn(C(C)C)c2n1`
**Result** condition met

**Query** For this compound, is measured ΔTm 0.7 °C or higher? `Cc1[nH]c(/C=C2\C(=O)Nc3ccc(S(=O)(=O)N(C)c4cccc(Cl)c4)cc32)c(C)c1C(=O)N1CCN(C)CC1`
**Result** condition not met

**Query** For this compound, is measured ΔTm 0.7 °C or higher? COC(=O)[C@]1(O)C[C@@H]2O[C@@]1(C)n1c3ccccc3c3c4c(c5c6ccccc6n2c5c31)C(=O)NC4 (single isomer, unassigned)
**Result** condition not met

**Query** For this compound, is measured ΔTm 0.7 °C or higher? `NC(=O)c1ccc2[nH]c(-c3ccc(Oc4ccc(Cl)cc4)cc3)nc2c1`
**Result** condition met

**Query** For this compound, is measured ΔTm 0.7 °C or higher? `COc1ccc(CNC(=O)Nc2ncc([N+](=O)[O-])s2)cc1`
**Result** condition not met

**Query** For this compound, is measured ΔTm 0.7 °C or higher? `O=C1Nc2ccc(S(=O)(=O)O)cc2/C1=C1/Nc2ccccc2/C1=N\O`
**Result** condition met

**Query** For this compound, is measured ΔTm 0.7 °C or higher? `CN1CCc2[nH]c(=S)c(C#N)c(-c3cccs3)c2C1`
**Result** condition met

**Query** For this compound, is measured ΔTm 0.7 °C or higher? `Cc1nc(Nc2ncc(C(=O)Nc3c(C)cccc3Cl)s2)cc(N2CCN(CCO)CC2)n1`
**Result** condition not met

**Query** For this compound, is measured ΔTm 0.7 °C or higher? `O=C1Nc2ccc(I)cc2/C1=C1/Nc2ccccc2/C1=N\O`
**Result** condition met

**Query** For this compound, is measured ΔTm 0.7 °C or higher? `Brc1c(Br)c(Br)c2[nH]nnc2c1Br`
**Result** condition not met

**Query** For this compound, is measured ΔTm 0.7 °C or higher? `CCOC(=O)c1c(C)[nH]c(/C=C2\C(=O)Nc3ccccc32)c1C`
**Result** condition not met

**Query** For this compound, is measured ΔTm 0.7 °C or higher? `O=C1Nc2cc(Br)ccc2/C1=C1/Nc2ccccc2/C1=N\O`
**Result** condition not met

**Query** For this compound, is measured ΔTm 0.7 °C or higher? `Cn1cc(/C=C2/C(=O)Nc3ccc(S(N)(=O)=O)cc32)c2ccccc21`
**Result** condition not met

**Query** For this compound, is measured ΔTm 0.7 °C or higher? `CN1CCC(Nc2ncc3ncnc(Nc4ccc(F)c(Cl)c4)c3n2)CC1`
**Result** condition not met

**Query** For this compound, is measured ΔTm 0.7 °C or higher? `COc1cc(/C=C/C(=O)CC(=O)/C=C/c2ccc(O)c(OC)c2)ccc1O`
**Result** condition met
